Entry source: ChEMBL document CHEMBL1201862

system: EKVX; assay: NCI tumour cell line growth inhibition, 48 h
Activity calls are given as the source filed them. Rule as the data show it: active = GI50 up to about 1.1 µM and inactive = higher.
Parameter: GI50

1) OC1c2ccccc2C2(O)C1C(c1ccccc1)C(c1ccccc1)C2(O)c1ccccc1 (configuration not stated): 15.4 µM (inactive)
2) NS(=O)(=O)c1ccc(/N=N/c2cc3ccccc3c(C(=O)O)c2O)cc1: > 100 µM (inactive)
3) Cc1cc(S(=O)(=O)Nc2nc(N)n[nH]2)c(S)cc1Cl: > 10 µM (inactive)
4) COc1ccc(N2C(=O)c3cc(C)cnc3S2(=O)=O)cc1: > 100 µM (inactive)
5) CCOP(=O)(C=C=C(C)C)OCC: > 100 µM (inactive)
6) CCOC(=O)CCC1(C(=O)OC)CCCC1=O (configuration not stated): > 100 µM (inactive)
7) CC(C)Oc1c(O)c2c3c(oc(=O)n3C=CC2c2ccccc2F)c1OC(C)C (configuration not stated): 41.1 µM (inactive)
8) Cc1cc2c(C)nn(Cc3ccccc3)c2c(C(N)=O)c1C: > 100 µM (inactive)
9) c1ccc2c(c1)Nc1nc3nonc3nc1N2: > 100 µM (inactive)
10) Cc1ccc(C(=O)OCC(C)C)cc1/N=N/N(C)C: > 100 µM (inactive)
11) CCOc1cc(C2SCC(=O)N2c2nc3cc4sc(N5C(=O)CSC5c5ccc(O)c(OCC)c5)nc4cc3s2)ccc1O (configuration not stated): 67.3 µM (inactive)
12) [O-]/[N+](=N/c1ncc(-c2ccccc2)cn1)c1ncc(-c2ccccc2)cn1: 63.5 µM (inactive)
13) CC1=NN2C(=N)/C(=C/c3ccco3)C(=O)N=C2S1: > 100 µM (inactive)
14) O=C(Cc1nc2ccccc2c(=O)n1-c1c(Cl)cccc1Cl)c1ccncc1: 61.5 µM (inactive)
15) Cc1ccnc(NC(=S)Nc2ccccc2Cl)c1: 40.1 µM (inactive)
16) COC(=O)c1ccc(NCc2cc(O)ccc2O)cc1O: 13.5 µM (inactive)
17) Cc1cc(C)nc(NS(=O)(=O)c2ccc(NC(=O)c3cccc4c(Nc5ccc(S(=O)(=O)Nc6nc(C)cc(C)n6)cc5)c5ccc(Cl)cc5nc34)cc2)n1: 29.5 µM (inactive)
18) CCOC(=O)/C(=C/c1ccc(C(F)(F)F)cc1)N(CC)CC: > 100 µM (inactive)
19) COC(=O)c1c(CC(=O)OC(C)C)cc2n(c1=O)Cc1c-2nc2ccccc2c1OC: > 100 µM (inactive)
20) Cc1ccc(NC(=O)CCc2nnc3s/c(=C\C=C\c4ccccc4)c(=O)n23)cc1: > 100 µM (inactive)
21) CN(C)/N=C1\CC(c2ccccc2)C(C#N)(C#N)C1(C#N)C#N (configuration not stated): 41.6 µM (inactive)
22) CCOC(=O)n1ccc2c(C(=O)OC)c(C(=O)OC)cc(/C(=C/C(=O)OC)C(=O)OC)c21: > 100 µM (inactive)

---

system: 786-0; assay: NCI tumour cell line growth inhibition, 48 h
Active and inactive are the calls of the source. Cut-off read from the data, not from the text of the source: active = GI50 up to about 1.1 µM and inactive = higher.
Parameter: GI50

1. c1ccc2c(c1)Nc1nc3nonc3nc1N2: > 100 µM (inactive)
2. CCN(CC)C(=O)N[C@@H](CC(C)C)C(=O)NC: > 100 µM (inactive)
3. CC1(C)C2CC3C4CC5(Nc6ccccc6C5N41)[C@]3(C)CC2=O (some centres undefined): > 50 µM (inactive)
4. CC(=O)Nc1ccc(/C=C(\NC(=O)c2ccccc2)C(=O)NNS(=O)(=O)c2ccc(C)cc2)cc1: > 10 µM (inactive)
5. O=C1c2c(n(Cc3ccccc3)c(=O)n2Cc2ccccc2)C(=O)N1Cc1ccccc1: > 100 µM (inactive)
6. CC12c3ccccc3C(OC=O)(c3ccccc31)C1(C)c3ccccc3C2(OC=O)c2ccccc21: > 100 µM (inactive)
7. O=C(O)CSC1=NCCN1: > 100 µM (inactive)
8. CCOC(=O)c1sc2nc(SC)nc3c2c1NCN3C: 15.2 µM (inactive)
9. O=C(NN=C(c1ccccc1)c1ccccc1)/C(O)=C/C(=O)c1ccc(Cl)cc1: 37.3 µM (inactive)
10. CN(C)C(=O)OC(Cn1cncn1)(Cn1cncn1)c1ccc(Cl)cc1Cl: > 100 µM (inactive)
11. O=C(O)CCS/C(=C\C(SCCC(=O)O)c1ccc(Cl)cc1)c1ccc(Cl)cc1 (centres undefined): 78.9 µM (inactive)
12. CCOC(=O)C(Cl)(NC(=O)OCc1ccccc1)C(F)(F)F (centres undefined): > 100 µM (inactive)
13. COC(=O)/C=C\C(C#N)(C#N)/N=C/c1ccc(Br)s1: 5.42 µM (inactive)
14. COC(=O)/C=C/c1ccc2c(c1)CCC2: 39.4 µM (inactive)
